Where these numbers come from: patent US11931424B2

Tested on: panel of breast cancer cell lines
Test: Compound A with targeted agents and chemotherapies, 72-hour in vitro proliferation assays
Type: cell-based
Conditions: HCC70; compound A × partner, 72-hour proliferation
Counter-ions that a name gives are not always drawn.
Lab note: anything with Loewe Volume below 7 is marked t; values at 7 or higher are marked f.

Would you please look over these solved cases?
compound | target or test system | category label
CC(=O)c1c(C)c2cnc(Nc3ccc(N4CCNCC4)cn3)nc2n(C2CCCC2)c1=O | panel of breast cancer cell lines | t
Nc1ccn([C@@H]2O[C@H](CO)[C@@H](O)C2(F)F)c(=O)n1 [Gemcitabine Hydrochloride] | panel of breast cancer cell lines | f
CN(C)C(=O)c1cc2cnc(Nc3ccc(N4CCNCC4)cn3)nc2n1C1CCCC1 | panel of breast cancer cell lines | t
N.N.O=C([O-])C1(C(=O)[O-])CCC1.[Pt+2] | panel of breast cancer cell lines | t

Now for another entry.
## Task Given Cc1c(-c2ccc(N3CCc4cccc(C(=O)Nc5nc6ccccc6s5)c4C3)nc2C(=O)O)cnn1CC12CC3CC(CC(C3)C1)C2 , is recorded Loewe Volume strictly lower than 7?
## Result f

----------
Tested on: panel of breast cancer cell lines
Assay: Compound A with targeted agents and chemotherapies, 72-hour in vitro proliferation assays
Format: cell-based
Settings: HCC1937; compound A × partner, 72-hour proliferation
Structures can show the parent of a compound that is named as a salt.
Lab note: anything with Synergy Score below 2 is marked Fulfilled; values at 2 or higher are marked Not fulfilled.

Would you please look over these solved cases?
molecule | category label
Nc1ccn([C@@H]2O[C@H](CO)[C@@H](O)C2(F)F)c(=O)n1 [Gemcitabine Hydrochloride] | Not fulfilled
CN(C)C(=O)c1cc2cnc(Nc3ccc(N4CCNCC4)cn3)nc2n1C1CCCC1 | Not fulfilled
CO[C@H]1C[C@@H]2CC[C@@H](C)[C@@](O)(O2)C(=O)C(=O)N2CCCC[C@H]2C(=O)O[C@H]([C@H](C)C[C@@H]2CC[C@@H](OCCO)[C@H](OC)C2)CC(=O)[C@H](C)/C=C(\C)[C@@H](O)[C@@H](OC)C(=O)[C@H](C)C[C@H](C)/C=C/C=C/C=C/1C | Not fulfilled

## Task Given C[C@]12CC[C@@H]3c4ccc(O)cc4C[C@@H](CCCCCCCCC[S+]([O-])CCCC(F)(F)C(F)(F)F)[C@H]3[C@@H]1CC[C@@H]2O (stereo partly shown) , is recorded Synergy Score strictly lower than 2?
## Result Not fulfilled

## Task Given Cn1ncnc1[C@H]1c2n[nH]c(=O)c3cc(F)cc(c23)N[C@@H]1c1ccc(F)cc1 , is recorded Synergy Score strictly lower than 2?
## Result Not fulfilled

## Task Given Cc1c(-c2ccc(N3CCc4cccc(C(=O)Nc5nc6ccccc6s5)c4C3)nc2C(=O)O)cnn1CC12CC3CC(CC(C3)C1)C2 , is recorded Synergy Score strictly lower than 2?
## Result Not fulfilled

## Task Given N.N.[Cl][Pt][Cl] [Cisplatin] , is recorded Synergy Score strictly lower than 2?
## Result Fulfilled

## Task Given O=C(c1cc(Cc2n[nH]c(=O)c3ccccc23)ccc1F)N1CCN(C(=O)C2CC2)CC1 , is recorded Synergy Score strictly lower than 2?
## Result Fulfilled

## Task Given CC(C)NC[C@@H](C(=O)N1CCN(c2ncnc3c2[C@H](C)C[C@H]3O)CC1)c1ccc(Cl)cc1 , is recorded Synergy Score strictly lower than 2?
## Result Not fulfilled

## Task Given N.N.O=C([O-])C1(C(=O)[O-])CCC1.[Pt+2] , is recorded Synergy Score strictly lower than 2?
## Result Not fulfilled

## Task Given CC1(C)CCC(CN2CCN(c3ccc(C(=O)NS(=O)(=O)c4ccc(NCC5CCOCC5)c([N+](=O)[O-])c4)c(Oc4cnc5[nH]ccc5c4)c3)CC2)=C(c2ccc(Cl)cc2)C1 , is recorded Synergy Score strictly lower than 2?
## Result Fulfilled

## Task Given CCN1CCN(Cc2ccc(Nc3ncc(F)c(-c4cc(F)c5nc(C)n(C(C)C)c5c4)n3)nc2)CC1 , is recorded Synergy Score strictly lower than 2?
## Result Not fulfilled

----------
// values below are reported Best CI
System: panel of breast cancer cell lines
Assay: Compound A with targeted agents and chemotherapies, 72-hour in vitro proliferation assays
Format: cell-based
Conditions: HCC1143; compound A × partner, 72-hour proliferation
Structures can show the parent of a compound that is named as a salt.

molecule | Best CI
CC(=O)c1c(C)c2cnc(Nc3ccc(N4CCNCC4)cn3)nc2n(C2CCCC2)c1=O | 0.75
CCOc1cc2ncc(C#N)c(Nc3ccc(OCc4ccccn4)c(Cl)c3)c2cc1NC(=O)/C=C/CN(C)C | 0.47
CC/C(=C(\c1ccccc1)c1ccc(OCCN(C)C)cc1)c1ccccc1 [Tamoxifen Citrate] | 0.19

Summary for this molecule, Nc1ccn([C@@H]2O[C@H](CO)[C@@H](O)C2(F)F)c(=O)n1 [Gemcitabine Hydrochloride] : Best CI is 0.15

Summary for this molecule, CC(=O)O[C@H]1C(=O)[C@@]2(C)[C@H]([C@H](OC(=O)c3ccccc3)[C@]3(O)C[C@H](OC(=O)[C@H](O)[C@@H](NC(=O)c4ccccc4)c4ccccc4)C(C)=C1C3(C)C)[C@]1(OC(C)=O)CO[C@@H]1C[C@@H]2O [Paclitaxel, reference compound] : Best CI is 0.35

----------
Tested on: panel of breast cancer cell lines
Test: Compound A with targeted agents and chemotherapies, 72-hour in vitro proliferation assays
Type: cell-based
Conditions: HCC1569; compound A × partner, 72-hour proliferation
Cut-off 10 on Synergy Score, inclusive. At or above means Met; below means Not met.

## Task # bool: Synergy Score of CC(=O)O[C@@]12CO[C@@H]1C[C@H](O)[C@@]1(C)C(=O)[C@H](O)C3=C(C)[C@@H](OC(=O)[C@H](O)[C@@H](NC(=O)OC(C)(C)C)c4ccccc4)C[C@@](O)([C@@H](OC(=O)c4ccccc4)[C@H]21)C3(C)C >= 10
## Result Met

## Task # bool: Synergy Score of C[C@]12CC[C@@H]3c4ccc(O)cc4C[C@@H](CCCCCCCCC[S+]([O-])CCCC(F)(F)C(F)(F)F)[C@H]3[C@@H]1CC[C@@H]2O (stereo partly drawn) >= 10
## Result Not met

## Task # bool: Synergy Score of N.N.O=C([O-])C1(C(=O)[O-])CCC1.[Pt+2] >= 10
## Result Not met

## Task # bool: Synergy Score of Cn1ncnc1[C@H]1c2n[nH]c(=O)c3cc(F)cc(c23)N[C@@H]1c1ccc(F)cc1 >= 10
## Result Met

## Task # bool: Synergy Score of Cc1c(-c2ccc(N3CCc4cccc(C(=O)Nc5nc6ccccc6s5)c4C3)nc2C(=O)O)cnn1CC12CC3CC(CC(C3)C1)C2 >= 10
## Result Met

## Task # bool: Synergy Score of CCOc1cc2ncc(C#N)c(Nc3ccc(OCc4ccccn4)c(Cl)c3)c2cc1NC(=O)/C=C/CN(C)C >= 10
## Result Met

----------
Tested on: panel of breast cancer cell lines
Assay: Compound A with targeted agents and chemotherapies, 72-hour in vitro proliferation assays
Type: cell-based
Settings: HCC1806; compound A × partner, 72-hour proliferation
Structures can show the parent of a compound that is named as a salt.
// values below are reported Synergy Score
Kindly provide the number alone.

compound | recorded measurement
Cn1ncnc1[C@H]1c2n[nH]c(=O)c3cc(F)cc(c23)N[C@@H]1c1ccc(F)cc1 [BMN 673] | 26.09
Cc1c(-c2ccc(N3CCc4cccc(C(=O)Nc5nc6ccccc6s5)c4C3)nc2C(=O)O)cnn1CC12CC3CC(CC(C3)C1)C2 [Compound A-1331852] | 183.39
C[C@]12CC[C@@H]3c4ccc(O)cc4C[C@@H](CCCCCCCCC[S+]([O-])CCCC(F)(F)C(F)(F)F)[C@H]3[C@@H]1CC[C@@H]2O (stereo partly shown) [Fulvestrant] | 2.60
Nc1ccn([C@@H]2O[C@H](CO)[C@@H](O)C2(F)F)c(=O)n1 [Gemcitabine Hydrochloride] | 30.81
CC1(C)CCC(c2ccc(Cl)cc2)=C(CN2CCN(c3ccc(C(=O)NS(=O)(=O)c4ccc(N[C@H](CCN5CCOCC5)CSc5ccccc5)c(S(=O)(=O)C(F)(F)F)c4)cc3)CC2)C1 [ABT-263] | 90.68

Summary for this compound, CO[C@H]1C[C@@H]2CC[C@@H](C)[C@@](O)(O2)C(=O)C(=O)N2CCCC[C@H]2C(=O)O[C@H]([C@H](C)C[C@@H]2CC[C@@H](OCCO)[C@H](OC)C2)CC(=O)[C@H](C)/C=C(\C)[C@@H](O)[C@@H](OC)C(=O)[C@H](C)C[C@H](C)/C=C/C=C/C=C/1C [Everolimus] : Synergy Score is 2.52

Summary for this compound, CCN1CCN(Cc2ccc(Nc3ncc(F)c(-c4cc(F)c5nc(C)n(C(C)C)c5c4)n3)nc2)CC1 [Abemaciclib] : Synergy Score is 4.43

Summary for this compound, CC(=O)O[C@@]12CO[C@@H]1C[C@H](O)[C@@]1(C)C(=O)[C@H](O)C3=C(C)[C@@H](OC(=O)[C@H](O)[C@@H](NC(=O)OC(C)(C)C)c4ccccc4)C[C@@](O)([C@@H](OC(=O)c4ccccc4)[C@H]21)C3(C)C [Docetaxel] : Synergy Score is 25.50

Summary for this compound, CC1(C)CCC(CN2CCN(c3ccc(C(=O)NS(=O)(=O)c4ccc(NCC5CCOCC5)c([N+](=O)[O-])c4)c(Oc4cnc5[nH]ccc5c4)c3)CC2)=C(c2ccc(Cl)cc2)C1 [ABT-199] : Synergy Score is 6.31

Summary for this compound, CC(C)NC[C@@H](C(=O)N1CCN(c2ncnc3c2[C@H](C)C[C@H]3O)CC1)c1ccc(Cl)cc1 [GDC-0068] : Synergy Score is 2.21

Summary for this compound, N.N.O=C([O-])C1(C(=O)[O-])CCC1.[Pt+2] [Carboplatin] : Synergy Score is 9.06

Summary for this compound, N.N.[Cl][Pt][Cl] [Cisplatin] : Synergy Score is 7.76

Summary for this compound, O=C(c1cc(Cc2n[nH]c(=O)c3ccccc23)ccc1F)N1CCN(C(=O)C2CC2)CC1 [Olaparib] : Synergy Score is 7.73

Summary for this compound, CC(=O)c1c(C)c2cnc(Nc3ccc(N4CCNCC4)cn3)nc2n(C2CCCC2)c1=O [PD-0332991] : Synergy Score is 0.99

Summary for this compound, CN(C)C(=O)c1cc2cnc(Nc3ccc(N4CCNCC4)cn3)nc2n1C1CCCC1 [LEE011] : Synergy Score is 0.65

Summary for this compound, CCOc1cc2ncc(C#N)c(Nc3ccc(OCc4ccccn4)c(Cl)c3)c2cc1NC(=O)/C=C/CN(C)C [Neratinib] : Synergy Score is 37.41
